// provenance: patent US20120107330A1

Molecular target: T1, human serum albumin (HSA, Sigma-Aldrich) (human, UniProt P02768 25-609)
T1 construct: also called human albumin
T1 sequence (P02768 25-609 limits assumed): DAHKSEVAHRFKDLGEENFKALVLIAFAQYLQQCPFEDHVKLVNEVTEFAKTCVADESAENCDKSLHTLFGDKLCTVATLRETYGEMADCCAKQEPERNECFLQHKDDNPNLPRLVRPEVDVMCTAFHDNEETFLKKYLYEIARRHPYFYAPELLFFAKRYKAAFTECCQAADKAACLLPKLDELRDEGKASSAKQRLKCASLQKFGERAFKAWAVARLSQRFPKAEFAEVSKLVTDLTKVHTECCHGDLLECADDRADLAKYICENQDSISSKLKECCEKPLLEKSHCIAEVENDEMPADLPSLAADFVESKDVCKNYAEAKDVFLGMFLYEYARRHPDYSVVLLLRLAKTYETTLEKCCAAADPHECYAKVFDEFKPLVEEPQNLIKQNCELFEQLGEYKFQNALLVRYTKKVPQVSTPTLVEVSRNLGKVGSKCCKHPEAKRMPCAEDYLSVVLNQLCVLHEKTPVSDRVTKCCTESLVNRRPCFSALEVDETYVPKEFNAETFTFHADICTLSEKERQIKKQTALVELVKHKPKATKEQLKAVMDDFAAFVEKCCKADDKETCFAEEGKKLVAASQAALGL
Assay: BIAcore, HSA on CM5 chip

binder	koff
DMS0184 (bispecific antibody, anti-TNFR1 dAb / AlbudAb in-line fusion) EVQLLESGGGLVQPGGSLRLSCAASGFTFVKYSMGWVRQAPGKGPEWVSQISNTGDRTYYADSVKGRFTISRDNSKNTLYLQMNSLRAEDTAVYYCAIYTGRWEPFDYWGQGTLVTVSSASTSGPSDIQMTQSPSSLSASVGDRVTITCRASRPIGTTLSWYQQKPGKAPKLLIWFGSRLQSGVPSRFSGSGSGTDFTLTISSLQPEDFATYYCAQAGTHPTTFGQGTKVEIKR	0.16 s⁻¹
DMS0190 (bispecific antibody, anti-TNFR1 dAb / AlbudAb in-line fusion) EVQLLESGGGLVQPGGSLRLSCAASGFTFVKYSMGWVRQAPGKGPEWVSQISNTGDRTYYADSVKGRFTISRDNSKNTLYLQMNSLRAEDTAVYYCAIYTGRWEPFDYWGQGTLVTVSSASTSGPSDIQMTQSPSSLSASVGDRVTITCRASRPIGTTLSWYQQKPGKAPKLLILWNSRLQSGVPSRFSGSGSGTDFTLTISSLQPEDFATYYCAQAGTHPTTFGQGTKVEIKRAAAEQKLISEEDLN	0.019 s⁻¹
DMS0188 (bispecific antibody, anti-TNFR1 dAb / AlbudAb in-line fusion) EVQLLESGGGLVQPGGSLRLSCAASGFTFVKYSMGWVRQAPGKGPEWVSQISNTGDRTYYADSVKGRFTISRDNSKNTLYLQMNSLRAEDTAVYYCAIYTGRWEPFDYWGQGTLVTVSSASTSGPSDIQMTQSPSSLSASVGDRVTITCRASRPIGTMLSWYQQKPGKAPKLLILFGSRLQSGVPSRFSGSGSGTDFTLTISSLQPEDFATYYCAQAGTHPTTFGQGTKVEIKRAAAEQKLISEEDLN	0.12 s⁻¹
DMS0163 (bispecific antibody, anti-TNFR1 dAb / AlbudAb in-line fusion) EVQLLESGGGLVQPGGSLRLSCAASGFTFVKYSMGWVRQAPGKGPEWVSQISNTGDRTYYADSVKGRFTISRDNSKNTLYLQMNSLRAEDTAVYYCAIYTGRWEPFDYWGQGTLVTVSSASTSGPSDIQMTQSPSSLSASVGDRVTITCRASRPIGTMLSWYQQKPGKAPKLLILAFSRLQSGVPSRFSGSGSGTDFTLTISSLQPEDFATYYCAQAGTHPTTFGQGTKVEIKRAAAEQKLISEEDLN	0.0024 s⁻¹
DMS0186 (bispecific antibody, anti-TNFR1 dAb / AlbudAb in-line fusion) EVQLLESGGGLVQPGGSLRLSCAASGFTFVKYSMGWVRQAPGKGPEWVSQISNTGDRTYYADSVKGRFTISRDNSKNTLYLQMNSLRAEDTAVYYCAIYTGRWEPFDYWGQGTLVTVSSASTDIQMTQSPSSLSASVGDRVTITCRASRPIGTMLSWYQQKPGKAPKLLILFGSRLQSGVPSRFSGSGSGTDFTLTISSLQPEDFATYYCAQAGTHPTTFGQGTKVEIKRAAAEQKLISEEDLN	0.12 s⁻¹
DMS0189 (bispecific antibody, anti-TNFR1 dAb / AlbudAb in-line fusion) EVQLLESGGGLVQPGGSLRLSCAASGFTFVKYSMGWVRQAPGKGPEWVSQISNTGDRTYYADSVKGRFTISRDNSKNTLYLQMNSLRAEDTAVYYCAIYTGRWEPFDYWGQGTLVTVSSASTDIQMTQSPSSLSASVGDRVTITCRASRPIGTTLSWYQQKPGKAPKLLILWNSRLQSGVPSRFSGSGSGTDFTLTISSLQPEDFATYYCAQAGTHPTTFGQGTKVEIKRAAAEQKLISEEDLN	0.017 s⁻¹
